Measured Kb accompanies every entry in the list below.
- Species on record: Rattus norvegicus
- test description: Tested for antagonism of methoxamine in the field-stimulated rat vas deferens.
- Format: functional
- experimental conditions: read-out: pA2 (converted)
Report the value in nM with no unit label.

# compound, number
data = [
    ("CN(C1CCN2CCc3c(oc4ccccc34)C2C1)S(=O)(=O)CCO (centres undefined)", 102),
    ("CN([C@H]1CCN2CCc3c(oc4ccccc34)[C@H]2C1)S(=O)(=O)CCO", 2510),
    ("CN([C@@H]1CCN2CCc3c(oc4ccccc34)[C@@H]2C1)S(=O)(=O)CCO", 34.7),
]

Now turn to the next compound.
Request: Give me measured Kb, please, for this compound: COC(=O)[C@@H]1[C@H]2C[C@H]3c4[nH]c5ccccc5c4CCN3C[C@@H]2CC[C@@H]1O
Result: 302
